system.under.test: GST tagged LXRbeta LBD (ligand binding domain) (Homo sapiens)
Construct: purchased Invitrogen pv4658.pps
Sequence (P55055 222-460 limits assumed): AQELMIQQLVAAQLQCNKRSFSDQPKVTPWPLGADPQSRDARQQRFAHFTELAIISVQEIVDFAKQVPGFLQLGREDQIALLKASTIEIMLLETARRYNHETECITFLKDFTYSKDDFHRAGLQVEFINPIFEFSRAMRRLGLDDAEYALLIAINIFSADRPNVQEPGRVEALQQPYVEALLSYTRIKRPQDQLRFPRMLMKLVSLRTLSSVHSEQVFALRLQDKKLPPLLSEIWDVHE
procedure.text: LanthaScreen TR-FRET Liver X Receptor Coactivator Assay, LXR beta-LBD (co-activator recruitment; IP and % Emax relative to T0901317)
Format: biochemical
condition.notes: efficacy at max dose in relation to reference T0901317, LXR beta-LBD; read-out: LXR beta actiivty at max dose (%)
# Emax per entry
Hi! Could you send only the number? It should be in %, unit omitted.

Below, 5 molecules whose answers are already recorded.
- molecule: "CN(C)C(=O)c1ccc(N2CCC(CCCNC(=O)[C@]3(c4ccccc4)CCCO3)CC2)nc1Cl"
  Emax, %: 104
- molecule: "CC(C)[C@@](O)(C(=O)N(C)CCCC1CCN(c2ccc(C(=O)N(C)C)c(Cl)n2)CC1)C(F)(F)F"
  Emax, %: 102
- molecule: "CN(CC[C@@H]1CC12CCN(c1ccc(C(=O)NC3CC3)c(Cl)c1)CC2)C(=O)[C@](O)(c1ccccc1)C(F)(F)F"
  Emax, %: 31
- molecule: "CN(C)C(=O)c1ccc(N2CCC(CCCN(C)C(=O)[C@](O)(c3cccc(OC(F)(F)F)c3)C(F)(F)F)CC2)nc1Cl"
  Emax, %: 63
- molecule: "COc1cccc([C@@](O)(C(=O)N(C)CCC2CC3(CCN(c4ccc(C(=O)NC5CC5)c(Cl)n4)CC3)C2)C(F)(F)F)c1"
  Emax, %: 35

Lab note: molecule CN(C)C(=O)c1ccc(N2CCC(CCCN(C)C(=O)[C@]3(c4ccccc4)CCOC3)CC2)nc1Cl tested on GST tagged LXRbeta LBD (ligand binding domain) (Homo sapiens); recorded Emax was 49

Lab note: molecule CN(C)C(=O)c1ccc(N2CCC(CC3CC(NC(=O)[C@](O)(c4ccccc4)C(F)(F)F)C3)CC2)nc1Cl (some centres unmarked) tested on GST tagged LXRbeta LBD (ligand binding domain) (Homo sapiens); recorded Emax was 118

Lab note: molecule CN(C)C(=O)c1ccc(N2CCC3(CC2)CC3CCCN(C)C(=O)C(C)(C)c2ccccc2)cc1Cl (centres unmarked) tested on GST tagged LXRbeta LBD (ligand binding domain) (Homo sapiens); recorded Emax was 23

Lab note: molecule COc1cccc([C@@](O)(C(=O)N(C)CCCC2CCN(c3ccc(C(=O)N(C)C)c(Cl)c3)CC2)C(F)(F)F)c1 tested on GST tagged LXRbeta LBD (ligand binding domain) (Homo sapiens); recorded Emax was 59

Lab note: molecule CN(C)C(=O)c1ccc(N2CCC(CCCNC(=O)C(O)(c3ccccc3)C(F)(F)C(F)(F)F)CC2)cc1Cl (centres unmarked) tested on GST tagged LXRbeta LBD (ligand binding domain) (Homo sapiens); recorded Emax was 118

Lab note: molecule CN(C)C(=O)c1ccc(N2CCC(CCCN(C)C(=O)[C@@](O)(c3cc(F)cc(Cl)c3)C(F)(F)F)CC2)nc1Cl tested on GST tagged LXRbeta LBD (ligand binding domain) (Homo sapiens); recorded Emax was 59

Lab note: molecule CNC(=O)c1ccc(N2CCC3(CC2)C[C@H]3CCN(C)C(=O)[C@](O)(c2cccc(OC)c2)C(F)(F)F)cc1Cl tested on GST tagged LXRbeta LBD (ligand binding domain) (Homo sapiens); recorded Emax was 36

Lab note: molecule CN(C)C(=O)c1ccc(N2CCC(CCCN(C)C(=O)[C@](O)(c3cc(Cl)cc(Cl)c3)C(F)(F)F)CC2)nc1Cl tested on GST tagged LXRbeta LBD (ligand binding domain) (Homo sapiens); recorded Emax was 44

Lab note: molecule CN(C)C(=O)c1ccc(N2CCC(CCCN(C)C(=O)[C@](O)(c3cccc(C4CC4)c3)C(F)(F)F)CC2)cc1Cl tested on GST tagged LXRbeta LBD (ligand binding domain) (Homo sapiens); recorded Emax was 53

Lab note: molecule COc1cccc([C@]2(C(=O)N(C)CCCC3CCN(c4ccc(C(=O)N(C)C)c(Cl)n4)CC3)CCCO2)c1 tested on GST tagged LXRbeta LBD (ligand binding domain) (Homo sapiens); recorded Emax was 37

Lab note: molecule CN(C)C(=O)c1ccc(N2CCC([C@@H]3C[C@H]3CNC(=O)[C@@](O)(c3ccccc3)C(F)(F)F)CC2)nc1Cl tested on GST tagged LXRbeta LBD (ligand binding domain) (Homo sapiens); recorded Emax was 84

Lab note: molecule CNC(=O)c1ccc(N2CCC(CC3CC(NC(=O)[C@](O)(c4ccccc4)C(F)(F)F)C3)CC2)cc1Cl (some centres unmarked) tested on GST tagged LXRbeta LBD (ligand binding domain) (Homo sapiens); recorded Emax was 93
